Hey, just so you know, these numbers are from the supplement of paper PMC9170038.

Tested on: K4 kissing-loop RNA reporter;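 note: bound reporter read as fluorescence of individual clusters on recovered sequencing chips by microscopy, with normalized cluster intensities fitted with a binding model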
Assay: apparent KD of K4 kissing-loop reporter; higher = weaker reporter binding
Conditions: Eterna round: R107; input ligand: none
Let's look at some sequences and their measured apparent KD of K4 kissing-loop reporter.
Provide only the numeric value, understood in nM.

Use the examples below as a reference point.
primary_sequence	result_unit	apparent KD of K4 kissing-loop reporter
UUUUACGAGUGAUGUUCGUAAUGUAAUAGUUAGGAUAUCGUUUUUUCGAGAAGGAACUUCGAAGUGAUACGAAAGUAUCGCUUCG [FMN A 9]	nM	184
UAACUUGCAGUGAUGUUGCAAGAACUGGAUACCAGCAUGGAAACAUGCCCUUGGCAGCCAGAAGCUGGCUGACUGCAAGGUCAGC [Design4]	nM	124
GUAGACAGGCUGCGAACCUAGUCUACAGACUAGGAUAUCAGGAAACUGAGAAGGAGUCUAGUUGCAGUGAUGUUGCAAGAAUAAU [KL-SSFMN-A25]	nM	94.6
UUUCGUAGAAGUGAUACCAGACUUGAAAGUGAUGUUUUCCAAUAAUUUAAAUUUUUAGCUGUCCCUUGGCAGCACAGUUUAUUUA [JR_Nu_ExcTheophyB_Sub026]	nM	263
AGCUCAGAGUGACUCGAUAAGAGUCACAAACGAGGACCGGUACGGCCGCCACUCGAAAUAACGAGAGUGAUGUUCUCACUGAGCA [FiskerMod 11 - Jieux - Same State Tryptophan A]	nM	1260

Qu. Which apparent KD of K4 kissing-loop reporter value belongs to GCCGUAGAUGGAAGGAGCGUGUCAAAGUGAUGUUUUGAUUAACUCCCUAAGGGAUAGAUGACACAGGUAGGUCGCCAUCUACGGC ?
Ans. 74.3
